assay-overview: In vitro rat microsomal stability assay
Type: in vitro ADME, rat (Sprague-Dawley)
experimental-setup: Sprague-Dawley, rat, 0.5 h, 0.5 μM, pH 7.4
Binary classification by RAT MICROSOMAL STABILITY (% REMAINING AFTER 30 MINUTES), with 10% as an inclusive lower bound for 1.0; all other cases are 0.0.

>>> class_assignment("OC(C1CCCc2cccnc21)C1(c2ccc(Cl)c(Cl)c2)CCC1 (single isomer, unassigned) [Example 182]")
0.0
>>> class_assignment("O=C1CC(c2cncc(C(F)(F)F)c2)(C(O)c2ccccn2)C1 (stereo not drawn)")
0.0
>>> class_assignment("OC(c1ccccn1)C1(c2cc(C(F)(F)F)ccn2)CCC1 (stereo not drawn)")
1.0
>>> class_assignment("OC(c1ccccn1)C1(c2ccc(OC(F)(F)F)cc2)CC(F)(F)C1 (stereo not drawn)")
1.0
>>> class_assignment("O=C1CC(c2ccc(Cl)c(Cl)c2)([C@H](O)c2ccccn2)C1")
1.0
>>> class_assignment("OC(c1ccccn1)C1(c2ccc(Cl)c(Cl)c2)CCCO1 (stereo not drawn) [Example 98]")
0.0
>>> class_assignment("OC(c1ccccn1)C1(C2(O)CCOC2)CCC1 (stereo not drawn)")
1.0
>>> class_assignment("OC(C1CCCc2cccnc21)C1(c2ccc(F)c(F)c2)CCC1 (stereo not drawn) [Example 170]")
0.0
>>> class_assignment("O=C1CC(c2cncc(C(F)(F)F)c2)([C@H](O)c2ccccn2)C1")
1.0

* * *

assay-overview: In vitro rat microsomal stability assay
Type: in vitro ADME, rat (Sprague-Dawley)
experimental-setup: Sprague-Dawley, rat, 0.5 h, 0.5 μM, pH 7.4
Measured RAT MICROSOMAL STABILITY (% REMAINING AFTER 30 MINUTES) accompanies every entry in the list below.
endpoint-label: RAT MICROSOMAL STABILITY (% REMAINING AFTER 30 MINUTES) (%)

>>> measurement("N[C@@H]1CCC[C@H]1[C@@H](O)C1(c2ccc(Cl)cc2)CCC1")
70
>>> measurement("NC1CCCC1C(O)C1(c2cccc(OC(F)(F)F)c2)CCC1 (stereo not drawn)")
36
>>> measurement("OC(c1ccccn1)C1(c2nc3ccc(Cl)cc3o2)CCC1 (stereo not drawn)")
22
>>> measurement("O[C@@H](c1ccccn1)C1(c2cc(C(F)(F)F)ccn2)CC(F)(F)C1")
8.8

* * *

Measured RAT MICROSOMAL STABILITY (% REMAINING AFTER 30 MINUTES) accompanies every entry in the list below.
assay-overview: In vitro rat microsomal stability assay
Assay type: in vitro ADME, rat (Sprague-Dawley)
experimental-setup: Sprague-Dawley, rat, 0.5 h, 0.5 μM, pH 7.4
endpoint-label: RAT MICROSOMAL STABILITY (% REMAINING AFTER 30 MINUTES) (%)

>>> measurement("O[C@H](c1ccccn1)C1(c2ccc(C(F)(F)F)c(F)c2)CCC1 [Example 29]")
45
>>> measurement("O[C@H](c1ccccn1)C1(c2ccc(C(F)(F)F)cc2)CC(F)(F)C1 [Example 154]")
78
>>> measurement("OC(c1ccccn1)C1(c2ccc(OC(F)(F)F)cc2)CCC1 (stereo not shown) [Example 12]")
11
>>> measurement("C[C@]1(O)C[C@@](c2ccc(OC(F)(F)F)cc2)([C@@H](O)c2ccccn2)C1 [Example 250]")
70
>>> measurement("N[C@H]1CCC[C@H]1[C@@H](O)C1(c2ccc(OC(F)(F)F)cc2)CCC1 [Example 229]")
80
>>> measurement("Nc1cccnc1C(O)C1(c2ccc(OC(F)(F)F)cc2)CCC1 (stereo not shown) [Example 121]")
0.18
>>> measurement("N[C@@H]1CCC[C@@H]1[C@@H](O)C1(c2ccc(Cl)c(Cl)c2)CCC1 [Example 216]")
41
>>> measurement("CON=C1CC(c2ccc(OC(F)(F)F)cc2)([C@H](O)c2ccccn2)C1 (stereo partly shown) [Example 249]")
3.2
>>> measurement("O[C@H](c1ccccn1)[C@@]1(c2ccc(Cl)c(Cl)c2)CCO1 [Example 135]")
3.4
>>> measurement("Nc1cccnc1C(O)C1(c2ccc(C(F)(F)F)cc2)CCC1 (stereo not shown) [Example 127]")
1.1
>>> measurement("OC(c1ccccn1)C1(c2ccccc2C(F)(F)F)CCC1 (stereo not shown) [Example 5]")
0.06
>>> measurement("OC1CC(c2cccc(OC(F)(F)F)c2)(C(O)c2ccccn2)C1 (stereo not shown) [Example 272]")
48
>>> measurement("Cc1ccccc1C1(C(O)c2ccccn2)CCC1 (stereo not shown) [Example 7]")
0.32
>>> measurement("OC(c1ccccn1)C1(c2ccc(Cl)c(Cl)c2)CC(F)(F)C1 (stereo not shown) [Example 82]")
16
>>> measurement("CC1(O)CC(c2ccc(C(F)(F)F)cc2)(C(O)c2ccccn2)C1 (single isomer, unassigned) [Example 232]")
67
>>> measurement("OC(c1ccccn1)C1(c2ccc(Cc3ccccc3)cc2)CCC1 (stereo not shown) [Example 25]")
1.3
>>> measurement("OC(c1ccccn1)C1(c2cccc(C(F)(F)F)c2)CC(F)(F)C1 (stereo not shown) [Example 113]")
18
>>> measurement("CC(C)(C)OC(=O)N1CC(c2ccc(C(F)(F)F)cc2)(C(O)c2ccccn2)C1 (stereo not shown) [Example 153]")
21
>>> measurement("OC(c1ccccn1)C1(c2cccc(OC(F)(F)F)c2)CCCO1 (stereo not shown) [Example 92]")
0.23
>>> measurement("OC(c1ccccn1)C1(c2nc3ccccc3o2)CCC1 (stereo not shown) [Example 271]")
8.6
>>> measurement("OC(c1ccccn1)C1(c2nc3ccc(F)cc3s2)CCC1 (stereo not shown) [Example 300]")
0.020
>>> measurement("OC(c1ccccn1)C1(c2ccc(C(F)(F)F)c(F)c2)CCC1 (stereo not shown) [Example 17]")
13
>>> measurement("CN(C)N=C1CC(c2ccc(OC(F)(F)F)cc2)([C@H](O)c2ccccn2)C1 (stereo partly shown) [Example 267]")
10
>>> measurement("OC(c1ccccn1)C1(c2ccccc2OC(F)(F)F)CCC1 (stereo not shown) [Example 10]")
0.62
>>> measurement("OC1CC(c2ccc(F)c(Cl)c2)([C@H](O)c2ccccn2)C1 (stereo partly shown) [Example 276]")
73
>>> measurement("OC(CC1(c2ccc(C(F)(F)F)cc2)CCC1)c1ccccn1 (stereo not shown) [Example 75]")
0.74
>>> measurement("Cc1cccc(C2(C(O)c3ccccn3)CCCO2)c1 (stereo not shown) [Example 91]")
1.0
